# Target system: Cyno CD3εδ-Fc (cynomolgus) (UniProt Q95LI8)
# Sequence (chain, as listed by the source mutant, chain 1 of 2): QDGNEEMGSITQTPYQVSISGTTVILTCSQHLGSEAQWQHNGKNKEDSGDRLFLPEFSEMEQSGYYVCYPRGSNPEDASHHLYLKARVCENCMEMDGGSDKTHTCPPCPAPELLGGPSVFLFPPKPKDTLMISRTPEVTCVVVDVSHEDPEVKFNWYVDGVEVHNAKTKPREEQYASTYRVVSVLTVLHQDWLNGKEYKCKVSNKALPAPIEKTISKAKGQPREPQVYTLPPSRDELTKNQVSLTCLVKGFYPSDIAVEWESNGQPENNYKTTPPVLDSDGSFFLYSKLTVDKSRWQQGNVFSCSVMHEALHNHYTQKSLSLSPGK
# Sequence (Q95LI8 22-105, stated change not applied, chain 2 of 2): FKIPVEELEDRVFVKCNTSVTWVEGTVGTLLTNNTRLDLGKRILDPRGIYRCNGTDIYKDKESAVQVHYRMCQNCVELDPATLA
# Protocol summary: KD of scFv-Fc or IgG on cyno CD3εδ-Fc; instrument not given
Measurement name: Kd (nM)
Field format: number, assumed nM, no unit text.

INSERT INTO measurements (binder, measurement) VALUES
  ('ADI-45972 (antibody, V domains shown, also called Ab8) VH: QVQLVQSGAEVKRPGASVKVSCKASGFNIKDYYMHWVRQAPGQRLEWIGWIDLENANTVYDAKFQGRVTITRDTSASTAYMELSSLRSEDTAVYYCARDAYGRYFYDVWGQGTLVTVSS VL: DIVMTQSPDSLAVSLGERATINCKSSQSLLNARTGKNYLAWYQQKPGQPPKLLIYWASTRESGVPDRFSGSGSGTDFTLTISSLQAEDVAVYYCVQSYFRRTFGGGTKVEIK', 1.4);

Continue with the binder presented below.
Looking up ADI-45959 (antibody, V domains shown, also called Ab13) VH: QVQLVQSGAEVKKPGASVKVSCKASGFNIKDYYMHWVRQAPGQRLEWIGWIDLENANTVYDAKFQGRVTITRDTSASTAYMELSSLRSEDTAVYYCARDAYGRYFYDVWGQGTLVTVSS VL: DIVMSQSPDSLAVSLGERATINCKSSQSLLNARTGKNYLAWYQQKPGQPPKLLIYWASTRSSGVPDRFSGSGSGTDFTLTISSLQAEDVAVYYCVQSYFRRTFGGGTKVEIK , I found its Kd recorded as 1.7

Where do these numbers come from? They come from patent US20260209352A1.
